Assignment: determine reported melting point for the given molecules.

Below, 10 molecules whose answers are already recorded.
molecule=O=C(Nc1ccc(F)c(-c2cncnc2)c1)N1CCc2cc(Cl)c(Cl)cc21 observation_type="melting point" measurement="132 to 135 °C"
molecule=COc1cc2c(cc1C(F)(F)F)N(C(=O)Nc1ccc(Oc3ccc(C#N)cc3)nc1)CC2 observation_type="melting point" measurement="188 to 189 °C"
molecule=COc1cc2c(cc1C(F)(F)F)N(C(=O)Nc1ccc(OCc3cccnc3)cc1)CC2 observation_type="melting point" measurement="215 to 217 °C"
molecule=COc1cc2c(cc1C(F)(F)F)N(C(=O)Nc1ccc3c(ccn3Cc3cccnc3)c1)CC2 observation_type="melting point" measurement="243 to 246 °C"
molecule="CSc1cc2c(cc1C(F)(F)F)N(C(=O)Nc1cccc(C(O)CCc3ccccn3)c1)CC2 (stereo not shown)" observation_type="melting point" measurement="78 to 80 °C"
molecule=COc1cc2c(cc1C(F)(F)F)N(C(=O)Nc1ccc(Oc3c(C)ccnc3C)nc1)CC2 observation_type="melting point" measurement="218 to 221 °C"
molecule=CSc1cc2c(cc1C(F)(F)F)N(C(=O)Nc1ccc(C)c(-c3cccnc3)c1)CC2 observation_type="melting point" measurement="221 to 223 °C"
molecule=COc1cc2c(cc1C(F)(F)F)N(C(=O)Nc1cc(-c3cccnc3)cc(-c3cccnc3)c1)CC2 observation_type="melting point" measurement="155 to 156 °C"
molecule=O=C(Nc1ccc(F)c(-c2cccnc2)c1)N1CCc2cc(Cl)c(Cl)cc21 observation_type="melting point" measurement="200 to 202 °C"
molecule=COc1cc2c(cc1C(F)(F)F)N(C(=O)Nc1ccc(C)c(-c3cccnc3)c1)CC2 observation_type="melting point" measurement="211 to 212 °C"

# map each molecule to its melting point
1. COc1cc2c(cc1C(F)(F)F)N(C(=O)Nc1ccc(Oc3ccccc3C(F)(F)F)nc1)CC2
2. COc1cc2c(cc1C(F)(F)F)N(C(=O)Nc1ccc(SCc3ccncc3)cc1)CC2
3. COc1cc2c(cc1C(F)(F)F)N(C(=O)Nc1ccc(Oc3cccnc3)cc1)CC2
4. COc1cc2c(cc1C(F)(F)F)N(C(=O)Nc1ccc(-c3ccncc3)cc1)CC2

1. 237 to 238 °C
2. 160 to 163 °C
3. 193 to 194 °C
4. > 210 °C

Provide the reported melting point of each entry below, same order.
1. COc1cc2c(cc1C(F)(F)F)N(C(=O)Nc1cncc(-c3ccsc3)c1)CC2
2. COc1cc2c(cc1C(F)(F)F)N(C(=O)Nc1ccc(Sc3cccnc3)nc1)CC2
3. CSc1cc2c(cc1C(F)(F)F)N(C(=O)Nc1cccc(-c3cccnc3)c1)CC2

["165 to 167 °C", "208 to 210 °C", "208 to 210 °C"]

---

So I've got a bunch of compounds here, and I need their melting point values.

Worked examples follow.
mol=COc1cc2c(cc1C(F)(F)F)N(C(=O)Nc1ccc(Oc3cccc(C#N)c3)nc1)CC2 observation_type="melting point" measurement="136 to 138 °C"
mol=CSc1cc2c(cc1C(F)(F)F)N(C(=O)Nc1ccc(Oc3cccnc3)nc1)CC2 observation_type="melting point" measurement="193 to 194 °C"
mol=COc1cc2c(cc1C(F)(F)F)N(C(=O)Nc1cc(-c3cccnc3)c(OC)c(C(F)(F)F)c1)CC2 observation_type="melting point" measurement="180 to 181 °C"
mol=COc1cc2c(cc1C(F)(F)F)N(C(=O)Nc1ccc(Oc3cccnc3Cl)nc1)CC2 observation_type="melting point" measurement="238 to 240 °C"

Consider the additional compound presented here.
Would you kindly share the measured melting point for CSc1cc2c(cc1C(F)(F)F)N(C(=O)Nc1ccc(Oc3ccc(C)nc3)nc1)CC2 ?
206 to 208 °C

src = patent US6638953B2
